- tgt: NrtB
- Format: cell-based, Aspergillus nidulans
- recorded-conditions: nrtA1 (NrtB); inhibitor concentration reducing net nitrate uptake rate by 50 % of control; mean ± SE
measurement-type: Ki (µM)
Hi! Could you send only the number? It should be in µM, unit omitted.

Ki for NrtB with input [O-][Cl+2]([O-])O [Chlorate, chlorate] equals 44300

Ki for NrtB with input [O-][Cl+]O [Chlorite, chlorite] equals 340

Ki for NrtB with input [Cs+] [Caesium, caesium] equals 2600

====

- tgt: NrtA (Emericella nidulans, UniProt P22152)
- Sequence (P22152 whole entry): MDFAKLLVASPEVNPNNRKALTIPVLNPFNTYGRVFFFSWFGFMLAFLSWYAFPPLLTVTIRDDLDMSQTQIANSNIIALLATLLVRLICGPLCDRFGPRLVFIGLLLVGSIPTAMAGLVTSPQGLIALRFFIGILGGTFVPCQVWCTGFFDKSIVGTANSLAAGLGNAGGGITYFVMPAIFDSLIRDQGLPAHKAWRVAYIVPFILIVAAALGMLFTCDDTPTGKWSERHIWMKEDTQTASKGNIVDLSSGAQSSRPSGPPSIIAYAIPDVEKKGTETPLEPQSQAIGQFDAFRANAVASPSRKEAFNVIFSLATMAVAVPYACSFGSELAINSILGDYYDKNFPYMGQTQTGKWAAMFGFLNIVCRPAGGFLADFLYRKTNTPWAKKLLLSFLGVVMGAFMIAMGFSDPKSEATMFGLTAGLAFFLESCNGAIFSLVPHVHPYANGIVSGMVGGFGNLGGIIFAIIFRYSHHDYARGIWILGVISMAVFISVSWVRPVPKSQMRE
- assay-method-text: cell-based
- recorded-conditions: K i, nrtB110 (NrtA); inhibitor concentration reducing net nitrate uptake rate by 50 % of control; mean ± SE
This section presents compounds with their documented Ki values.
Hi! Could you send only the number? It should be in mM, unit omitted.

compound	value-observed
[O-][Cl+]O [Chlorite, chlorite]	0.49

Ki for NrtA (Emericella nidulans, UniProt P22152) with input [O-][Cl+2]([O-])O [Chlorate, chlorate] equals 29.3
